target: Dual specificity tyrosine-phosphorylation-regulated kinase 1A (Homo sapiens, UniProt Q13627); experiment: Inhibition of recombinant full length human GST-tagged DYRK1A expressed in baculovirus expression system using serine/threonine-18 peptide as substrate incubated for 60 mins in presence of ATP by Z'-LYTE assay
Experimental Readout: IC50

- Chemical String: "C[C@@H]1C[C@H]1C(=O)N1CCN(c2cnc(C#N)c(-c3cnn(C)c3)n2)C[C@H]1C"
  Experimental Readout: "IC50"
  Meas Value: "> 100 µM"

* * *

biological target: MAP/microtubule affinity-regulating kinase 3 (Homo sapiens); experiment: Inhibition of recombinant full length human GST-tagged MARK3 expressed in baculovirus expression system using serine/threonine-25 peptide as substrate incubated for 60 mins in presence of ATP by Z'-LYTE assay
Sequence (P27448 whole entry): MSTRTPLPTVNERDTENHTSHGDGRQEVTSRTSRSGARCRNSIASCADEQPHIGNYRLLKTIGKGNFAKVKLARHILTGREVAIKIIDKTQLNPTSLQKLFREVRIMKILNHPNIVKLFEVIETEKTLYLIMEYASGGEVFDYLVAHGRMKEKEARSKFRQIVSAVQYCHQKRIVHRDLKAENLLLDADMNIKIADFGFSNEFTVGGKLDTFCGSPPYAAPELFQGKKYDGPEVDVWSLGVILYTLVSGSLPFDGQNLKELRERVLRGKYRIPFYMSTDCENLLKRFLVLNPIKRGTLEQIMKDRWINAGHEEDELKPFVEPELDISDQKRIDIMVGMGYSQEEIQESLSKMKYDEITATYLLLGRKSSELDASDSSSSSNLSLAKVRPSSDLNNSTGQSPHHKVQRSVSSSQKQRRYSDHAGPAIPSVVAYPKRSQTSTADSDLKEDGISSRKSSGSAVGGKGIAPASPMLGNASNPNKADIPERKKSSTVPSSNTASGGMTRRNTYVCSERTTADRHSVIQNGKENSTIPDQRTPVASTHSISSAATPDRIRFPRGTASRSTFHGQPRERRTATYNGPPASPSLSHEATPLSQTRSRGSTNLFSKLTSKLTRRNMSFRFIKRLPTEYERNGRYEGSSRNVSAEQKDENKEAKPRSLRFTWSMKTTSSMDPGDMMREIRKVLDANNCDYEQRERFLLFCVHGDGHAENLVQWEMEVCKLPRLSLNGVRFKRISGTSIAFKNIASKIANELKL

- Chemical String: "C[C@@H]1C[C@H]1C(=O)N1CCN(c2cnc(C#N)c(-c3cnn(C)c3)n2)C[C@H]1C"
  IC50: "> 100 µM"
